target: Aβ(1–42) aggregates (Homo sapiens); construct: Aβ(1–42) was purchased from the Peptide Institute (Osaka, Japan); assay: In vitro binding assay with Aβ(1–42) aggregates, competition with [125I]IMPY; conditions: mean ± SEM of three independent determinations; Cheng-Prusoff
Sequence (P05067 672-713 limits assumed): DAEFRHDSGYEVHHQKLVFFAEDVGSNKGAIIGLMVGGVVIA
RECORDED_ENDPOINT: Ki (nM)

{"COMPOUND": "CN(C)c1ccc(-c2cc3cc(I)ccc3o2)cn1 [Compound 9]", "Ki [nM]": 2.36}

1. CNc1ccc(-c2cc3cc(I)ccc3o2)cn1 [Compound 8]
2. Nc1ccc(-c2cc3cc(I)ccc3o2)cn1 [Compound 7, 5-(5-Iodobenzofuran-2-yl)pyridin-2-amine]
// which entry reports the smaller Ki, 1 or 2 ? Respond with the label that goes with your answer.
1
(1: 2.94 nM, 2: 10.3 nM)
